Kindly state Bttm for each of the entries shown.
- Test system: Ste2-like fungal mating GPCRs expressed in S. cerevisiae
- test.method.notes: GPCR on-off activity and dose response assay (FUS1 promoter coRFP fluorescent reporter, strain JTy014, synthetic peptide ligand)
- Format: cell-based, Ascomycete fungi (expressed in S. cerevisiae)
- test.settings: bottom of 4-parameter fit of the fluorescence dose response curve (basal activation)
Ends that are not written are not given here.
I only need the number, thanks.

stdin: Record request: Bttm value, item H-KPHWTTYGYYEPQ-OH [Cp]
stdout: 36.2

stdin: Record request: Bttm value, item FSWNYRLKWQPIS [Cn]
stdout: 29.7

stdin: Record request: Bttm value, item H-WHWVRLRKGQGLF-OH [Cg]
stdout: 30.5

stdin: Record request: Bttm value, item H-KFKFRLTRYGWFSPN-OH [Ct]
stdout: 32.0

stdin: Record request: Bttm value, item H-KWGWLRFFPGEPFV-OH [Cau]
stdout: 50.6

stdin: Record request: Bttm value, item H-WSWITLRPGQPIF-OH [Kl]
stdout: 37.2

stdin: Record request: Bttm value, item H-NWHWLRLDPGQPLY-OH [Sca]
stdout: 24.3

* * *

- Tested on: Ste2-like fungal mating GPCRs expressed in S. cerevisiae
- test.method.notes: GPCR on-off activity and dose response assay (FUS1 promoter coRFP fluorescent reporter, strain JTy014, synthetic peptide ligand)
- Format: cell-based, Ascomycete fungi (expressed in S. cerevisiae)
- test.settings: fold-change activation from Top and Bttm of the fit
Ends that are not written are not given here.
Kindly state Fold Change for each of the entries shown.
I only need the number, thanks.

stdin: API: value(readout=Fold Change, system=Ste2-like fungal mating GPCRs expressed in S. cerevisiae) for record H-WHWVRLRKGQGLF-OH [Cg]
stdout: 7.0

stdin: API: value(readout=Fold Change, system=Ste2-like fungal mating GPCRs expressed in S. cerevisiae) for record H-KFKFRLTRYGWFSPN-OH [Ct]
stdout: 5.2

stdin: API: value(readout=Fold Change, system=Ste2-like fungal mating GPCRs expressed in S. cerevisiae) for record H-NWHWLRLDPGQPLY-OH [Sca]
stdout: 6.4

stdin: API: value(readout=Fold Change, system=Ste2-like fungal mating GPCRs expressed in S. cerevisiae) for record H-KWGWLRFFPGEPFV-OH [Cau]
stdout: 6.7

stdin: API: value(readout=Fold Change, system=Ste2-like fungal mating GPCRs expressed in S. cerevisiae) for record FSWNYRLKWQPIS [Cn]
stdout: 5.1

stdin: API: value(readout=Fold Change, system=Ste2-like fungal mating GPCRs expressed in S. cerevisiae) for record H-KPHWTTYGYYEPQ-OH [Cp]
stdout: 7.0

stdin: API: value(readout=Fold Change, system=Ste2-like fungal mating GPCRs expressed in S. cerevisiae) for record H-WSWITLRPGQPIF-OH [Kl]
stdout: 6.0

* * *

- System: Ste2-like fungal mating GPCRs expressed in S. cerevisiae
- test.method.notes: GPCR on-off activity and dose response assay (FUS1 promoter coRFP fluorescent reporter, strain JTy014, synthetic peptide ligand)
- Format: cell-based, Ascomycete fungi (expressed in S. cerevisiae)
- test.settings: span of 4-parameter fit of the fluorescence dose response curve
- Method: GPCR on-off activity and dose response assay. GPCR activity and response to increasing dosage of synthetic peptide ligand was measured in strain JTy014 using the genomically integrated FUS1-promoter controlled coRFP as a fluorescent reporter. […] RFP fluorescence (excitation: 588 nm, emission: 620 nm) and culture turbidity (A600) were measured after 8 hours using an Infinite M200 plate reader (Tecan). […]
Ends that are not written are not given here.
Span strictly under 200 means Criterion met; at 200 or over means Criterion not met.

stdin: Dear reviewer, please state whether H-WSWITLRPGQPIF-OH [Kl] has Span strictly beneath 200.
stdout: Criterion met

stdin: Dear reviewer, please state whether H-KWGWLRFFPGEPFV-OH [Cau] has Span strictly beneath 200.
stdout: Criterion not met

stdin: Dear reviewer, please state whether H-KPHWTTYGYYEPQ-OH [Cp] has Span strictly beneath 200.
stdout: Criterion not met

stdin: Dear reviewer, please state whether FSWNYRLKWQPIS [Cn] has Span strictly beneath 200.
stdout: Criterion met

stdin: Dear reviewer, please state whether H-NWHWLRLDPGQPLY-OH [Sca] has Span strictly beneath 200.
stdout: Criterion met

stdin: Dear reviewer, please state whether H-WHWVRLRKGQGLF-OH [Cg] has Span strictly beneath 200.
stdout: Criterion met

stdin: Dear reviewer, please state whether H-KFKFRLTRYGWFSPN-OH [Ct] has Span strictly beneath 200.
stdout: Criterion met
